meta.source: PubChem BioAssay AID504834

Test: Primary qHTS for delayed death inhibitors of the malarial parasite plastid, 96 hour incubation
Conditions: P. falciparum luciferase reporter growth; series mostly up to 28.7 µM
Among all 320,000 compounds or so, about 22,000 (6.9%) were called active. Not shown: some 27% with an inconclusive outcome. Calls follow the shape of the dose curve; as a rule, active = well fitted inhibition curve with a large enough effect; inconclusive = small, poorly fitted or top-dose-only effect, or another doubt; inactive = no such curve, though single readings can be large or run the other way. The full list was thinned out, with actives kept by preference.
Classes to choose from: active, inactive

Record lookup: outcome of this test for Cc1cccc(C(=O)NNC(=O)CSc2nnc(C(C)C)n2C)c1 ?
inactive

Record lookup: outcome of this test for CC(=O)NCC(=O)N1CCC(n2nccc2NC(=O)CCCc2ccccc2)CC1 ?
inactive

Record lookup: outcome of this test for CN(CCC1CCOCC1)C(=O)CC1C(=O)NCCN1Cc1cccc(F)c1 (configuration not stated) ?
inactive

Record lookup: outcome of this test for Cc1nn(-c2ccccc2)c(=O)c2noc(C)c12 ?
inactive

Record lookup: outcome of this test for CCOC(=O)N1CCN(C(=O)COC(=O)c2cccc(S(C)(=O)=O)c2)CC1 ?
inactive

Record lookup: outcome of this test for CN(C)CCCN=Cc1c(O)n(Cc2ccco2)c(=O)[nH]c1=O ?
inactive

Record lookup: outcome of this test for CCCOC(=O)C1=C(C)NC2=C(C(=O)C(C(=O)OC)C(C)C2)C1c1ccc(N(C)C)cc1 (configuration not stated) ?
inactive

Record lookup: outcome of this test for O=C1CC2(CCN(C(=O)COc3ccc(F)cc3)CC2)Oc2ccccc21 ?
inactive

Record lookup: outcome of this test for Cc1sc2ncnc(N3CCC(C(=O)Nc4nc5ccc(Cl)cc5s4)CC3)c2c1C ?
inactive

Record lookup: outcome of this test for COc1cc(C2C(C(=O)c3ccco3)=C(O)C(=O)N2c2cc(C)on2)ccc1OCc1ccccc1 (configuration not stated) ?
inactive

Record lookup: outcome of this test for S=C(NCc1ccco1)NCc1ccccc1Cl ?
inactive

Record lookup: outcome of this test for COc1ccccc1OCCOc1ccc(/C=C2\C(=N)N3N=C(C)SC3=NC2=O)cc1 ?
inactive

Record lookup: outcome of this test for COCc1c(C(=O)OCC(=O)Nc2ccc(OC(F)F)cc2)oc2ccccc12 ?
inactive

Record lookup: outcome of this test for O=C(O)CSc1c2c(nc3cc(C(=O)Nc4cccc(C(F)(F)F)c4)ccc13)CCCC2 ?
inactive

Record lookup: outcome of this test for Cc1noc(C)c1CSCC(=O)Nc1ccc(Br)cc1Cl ?
inactive

Record lookup: outcome of this test for COC(=O)[C@H](CC(C)C)NC(=O)N1CCCCC1C (some centres not stated) ?
inactive

Record lookup: outcome of this test for COC(=O)C1C(=O)c2c([nH]c(C(=O)OCCSC)c2C)CC1C (configuration not stated) ?
active

Record lookup: outcome of this test for CN(CCC1CCOCC1)Cc1cn[nH]c1-c1ccc(-c2ccccc2)cc1 ?
active

Record lookup: outcome of this test for Cn1nc(C(F)(F)F)c(C(=O)Nc2cccc(C(F)(F)F)c2)c1SCc1ccc(Cl)cc1 ?
active

Record lookup: outcome of this test for COC(=O)c1sccc1NC(=O)c1ccc(Cl)cc1 ?
inactive

Record lookup: outcome of this test for CCCc1cc(=O)[nH]c(SCC(=O)Nc2sc3c(c2C#N)CCCC3)n1 ?
inactive

Record lookup: outcome of this test for CC(C)C[C@H](NC(=O)Nc1cccc(C(F)(F)F)c1)C(=O)O ?
inactive
